# Target System: human TRPA1 (Homo sapiens, UniProt O75762)
# Sequence (O75762 whole entry): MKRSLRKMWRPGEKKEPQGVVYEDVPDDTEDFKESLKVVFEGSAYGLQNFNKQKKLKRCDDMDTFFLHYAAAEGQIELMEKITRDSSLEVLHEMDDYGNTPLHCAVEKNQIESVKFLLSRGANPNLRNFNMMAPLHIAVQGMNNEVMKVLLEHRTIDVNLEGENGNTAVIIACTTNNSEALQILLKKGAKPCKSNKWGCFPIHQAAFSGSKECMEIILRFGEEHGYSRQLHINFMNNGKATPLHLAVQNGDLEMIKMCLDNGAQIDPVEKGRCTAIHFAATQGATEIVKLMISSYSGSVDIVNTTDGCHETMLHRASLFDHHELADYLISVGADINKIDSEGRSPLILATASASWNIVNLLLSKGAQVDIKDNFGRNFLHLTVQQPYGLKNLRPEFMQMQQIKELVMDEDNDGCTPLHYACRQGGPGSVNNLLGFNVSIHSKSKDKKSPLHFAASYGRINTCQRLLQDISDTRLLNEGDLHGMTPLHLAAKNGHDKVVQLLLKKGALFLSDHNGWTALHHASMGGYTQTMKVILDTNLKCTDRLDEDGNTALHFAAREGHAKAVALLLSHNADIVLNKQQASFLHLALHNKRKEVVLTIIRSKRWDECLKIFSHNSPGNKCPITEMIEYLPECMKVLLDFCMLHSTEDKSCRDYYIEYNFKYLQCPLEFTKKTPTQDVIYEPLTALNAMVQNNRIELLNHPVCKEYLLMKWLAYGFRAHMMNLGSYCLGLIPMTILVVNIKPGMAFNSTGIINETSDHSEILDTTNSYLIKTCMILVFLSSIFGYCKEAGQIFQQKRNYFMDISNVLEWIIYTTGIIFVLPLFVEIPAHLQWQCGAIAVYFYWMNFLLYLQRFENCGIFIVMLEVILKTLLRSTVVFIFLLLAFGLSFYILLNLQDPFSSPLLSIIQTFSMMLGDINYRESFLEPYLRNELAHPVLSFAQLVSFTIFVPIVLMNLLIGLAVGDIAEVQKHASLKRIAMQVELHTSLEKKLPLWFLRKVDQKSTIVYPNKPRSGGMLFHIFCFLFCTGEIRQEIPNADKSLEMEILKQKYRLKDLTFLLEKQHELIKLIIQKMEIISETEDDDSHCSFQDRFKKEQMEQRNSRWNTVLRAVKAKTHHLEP
# Test: Fluo4 [Ca2+]i assay in HEK-A1 cells
# Type: cell-based
# Condition Context: HEK-A1 cells

- Compound: "COC(=O)C1=C(C)NC(C)=C(C(=O)OC)C1c1ccccc1[N+](=O)[O-]"
  nH (Hill coefficient): "1.0 ± 0.1"
- Compound: "O=C(O)c1ccccc1Nc1cccc(C(F)(F)F)c1"
  nH (Hill coefficient): "1.6 ± 0.1"
- Compound: "C=CCN=C=S [AITC, allyl isothiocyanate]"
  nH (Hill coefficient): "0.8 ± 0.1"
- Compound: "CC(C(=O)O)c1ccc(-c2ccccc2)c(F)c1 (racemic) [flurbiprofen, (±)-flurbiprofen]"
  nH (Hill coefficient): "2.0 ± 0.3"

---

# Target System: human TRPA1 endogenously expressed in WI-38 fibroblasts (Homo sapiens, UniProt O75762)
# Sequence (O75762 whole entry): as above
# Test: Fluo4 [Ca2+]i assay in WI-38 fibroblasts
# Type: cell-based
# Condition Context: WI-38 cells

- Compound: "C=CCN=C=S [AITC, allyl isothiocyanate]"
  nH (Hill coefficient): 1.0
- Compound: "CC(C(=O)O)c1ccc(-c2ccccc2)c(F)c1 (racemic) [flurbiprofen, (±)-flurbiprofen]"
  nH (Hill coefficient): 1.5
- Compound: "O=C(O)c1ccccc1Nc1cccc(C(F)(F)F)c1 [FFA, flufenamic acid]"
  nH (Hill coefficient): 1.3
- Compound: "COC(=O)C1=C(C)NC(C)=C(C(=O)OC)C1c1ccccc1[N+](=O)[O-] [nifedipine]"
  nH (Hill coefficient): 1.1
- Compound: "C=CC=O [acrolein]"
  nH (Hill coefficient): 1.0

---

# Target System: human TRPA1 (Homo sapiens, UniProt O75762)
# Test: Fluo4 [Ca2+]i assay in HEK-A1 cells
pEC50: −log10 of the molar value.
molecules and their reported pEC50

- Molecule: "COC(=O)C1=C(C)NC(C)=C(C(=O)OC)C1c1ccccc1[N+](=O)[O-]"
  Target System: "human TRPA1 (Homo sapiens, UniProt O75762)"
  pEC50: 3.85
- Molecule: "CC(C(=O)O)c1ccc(-c2ccccc2)c(F)c1 (racemic) [flurbiprofen, (±)-flurbiprofen]"
  Target System: "human TRPA1 (Homo sapiens, UniProt O75762)"
  pEC50: 3.51
- Molecule: "O=C(O)c1ccccc1Nc1cccc(C(F)(F)F)c1"
  Target System: "human TRPA1 (Homo sapiens, UniProt O75762)"
  pEC50: 4.24

---

# Target System: human TRPA1 endogenously expressed in WI-38 fibroblasts (Homo sapiens, UniProt O75762)
# Test: Whole-cell recordings of WI-38 cells
# Assay type: cell-based
# Condition Context: EC50 for FFA-evoked whole-cell currents at −100 mV, −100 mV
pEC50: −log10 of the molar value.

- Compound: "O=C(O)c1ccccc1Nc1cccc(C(F)(F)F)c1 [FFA, flufenamic acid]"
  pEC50: 4.26

---

# Target System: human TRPA1 endogenously expressed in WI-38 fibroblasts (Homo sapiens, UniProt O75762)
# Test: Fluo4 [Ca2+]i assay in WI-38 fibroblasts
# Type: cell-based
# Condition Context: WI-38 cells
Structures can show the parent of a compound that is named as a salt.
Outcome Measure: nH (Hill coefficient)

- Compound: "O=C/C=C/c1ccccc1"
  Measurement: "0.9 ± 0.1"
- Compound: "Cc1cccc(Nc2ccccc2C(=O)O)c1C"
  Measurement: "1.5 ± 0.2"
- Compound: "O=C(O)Cc1ccccc1Nc1c(Cl)cccc1Cl [diclofenac, Diclofenac sodium salt]"
  Measurement: "1.3 ± 0.2"
- Compound: "O=C(O)c1cccnc1Nc1cccc(C(F)(F)F)c1"
  Measurement: "1.4 ± 0.2"
